Test system: PANC-1
EXPERIMENT_SUMMARY: SRB colorimetric assay of cell growth and viability, PANC-1
Type: cell-based, human
SETUP_CONDITIONS: 48 hours exposure; read-out: LC50 PANC-1
Where a SMILES comes first, the peptide text is derived from it. Bridges are numbered along the chain shown (N, C = ends). [ ]: non-standard residue; d: D form. The star is where a group is joined. d(aIle) = CC[C@H](C)[C@@H](N)C(=O)O; d(aThr) = C[C@@H](O)[C@@H](N)C(=O)O; Hexanoyl(5-Me) = CC(C)CCCC(=O)*; Orn = NCCC[C@H](N)C(=O)O; Dhb = C/C=C(\N)C(=O)O
Give measured CC50 for each item. Keep answers brief.
Write the value in µM as a bare number.

Provide only the value of recorded CC50 for C/C=C1\NC(=O)[C@H](Cc2ccccc2)NC(=O)[C@@H](C(C)C)NC(=O)[C@@H]([C@@H](C)CC)NC(=O)[C@H](NC(=O)[C@H](NC(=O)[C@H](CCCN)NC(=O)[C@H]2CCCN2C(=O)[C@H](NC(=O)[C@@H](NC(=O)[C@@H](NC(=O)[C@H]2CCCN2C(=O)CCCC(C)C)[C@@H](C)O)C(C)C)C(C)C)[C@@H](C)CC)[C@@H](C)OC(=O)[C@H](C(C)C)NC1=O [Compound 37, [D-Pro^13]-KF]
0.0628

Quote CC50 reported for C/C=C1\NC(=O)[C@H](Cc2ccccc2)NC(=O)[C@@H](C(C)C)NC(=O)[C@@H]([C@@H](C)CC)NC(=O)[C@H](NC(=O)[C@H](NC(=O)[C@H](CCCN)NC(=O)[C@H]2CCCN2C(=O)[C@H](NC(=O)[C@@H](NC(=O)[C@@H](NC(=O)[C@H](NC(=O)CCCC(C)C)C(C)C)C(C)C)C(C)C)C(C)C)[C@@H](C)CC)[C@@H](C)OC(=O)[C@H](C(C)C)NC1=O [Compound 6, [Val^12]-KF] ({Hexanoyl(5-Me)}-[dV]VV[dV][dP][Orn][d(aIle)][d(aThr)][d(aIle)][dV]F[Dhb]V; ester 8-C) please.
3.8

Please give measured CC50 of the following entry: C/C=C1\NC(=O)[C@H](Cc2ccccc2)NC(=O)[C@@H](C(C)C)NC(=O)[C@@H]([C@@H](C)CC)NC(=O)[C@H](NC(=O)[C@H](NC(=O)[C@H](CCCCN)NC(=O)[C@H]2CCCN2C(=O)[C@H](NC(=O)[C@@H](NC(=O)[C@@H](NC(=O)[C@H](NC(=O)CCCC(C)C)C(C)C)[C@@H](C)O)C(C)C)C(C)C)[C@@H](C)CC)[C@@H](C)OC(=O)[C@H](C(C)C)NC1=O [Compound 5, [Lys^8]-KF]
4.92

* * *

System: PANC-1
EXPERIMENT_SUMMARY: SRB colorimetric assay of cell growth and viability, PANC-1
Format: cell-based, human
SETUP_CONDITIONS: 48 hours exposure
Where a SMILES comes first, the peptide text is derived from it. Bridges are numbered along the chain shown (N, C = ends). [ ]: non-standard residue; d: D form. The star is where a group is joined. d(aIle) = CC[C@H](C)[C@@H](N)C(=O)O; d(aThr) = C[C@@H](O)[C@@H](N)C(=O)O; Hexanoyl(5-Me) = CC(C)CCCC(=O)*; Orn = NCCC[C@H](N)C(=O)O; Dhb = C/C=C(\N)C(=O)O
MEASUREMENT_LABEL: TGI PANC-1 (Molar)
Hi! Could you send only the number? It should be in Molar, unit omitted.

Given C/C=C1\NC(=O)[C@H](Cc2ccccc2)NC(=O)[C@@H](C(C)C)NC(=O)[C@@H]([C@@H](C)CC)NC(=O)[C@H](NC(=O)[C@H](NC(=O)[C@H](CCCN)NC(=O)[C@H]2CCCN2C(=O)[C@H](NC(=O)[C@@H](NC(=O)[C@@H](NC(=O)[C@@H](CCC(=O)O)NC(=O)CCCC(C)C)[C@@H](C)O)C(C)C)C(C)C)[C@@H](C)CC)[C@@H](C)OC(=O)[C@H](C(C)C)NC1=O [Compound 39, [D-Glu^13]-KF] , respond with its TGI PANC-1.
6.63E−06

In one line, give reported TGI PANC-1 of the entry C/C=C1\NC(=O)[C@H](Cc2ccccc2)NC(=O)[C@@H](C(C)C)NC(=O)[C@@H]([C@@H](C)CC)NC(=O)[C@H](NC(=O)[C@H](NC(=O)[C@H](CCCN)NC(=O)[C@H]2CCCN2C(=O)[C@H](NC(=O)[C@@H](NC(=O)[C@H](C)NC(=O)CCCC(C)C)C(C)C)C(C)C)[C@@H](C)CC)[C@@H](C)OC(=O)[C@H](C(C)C)NC1=O [Compound 52, [Ala^12, noD-Val^13]-KF] ({Hexanoyl(5-Me)}-AV[dV][dP][Orn][d(aIle)][d(aThr)][d(aIle)][dV]F[Dhb]V; ester 7-C) .
7.41E−06
